Where do these numbers come from? They come from patent US20230340011A1.

Reported values of pEC50 for individual entries
molecular target: LXRβ (Homo sapiens (Human)); assay: In vitro assay LXRβ: PathHunter NHR CHO cells, LXRβ / Steroid Receptor Co-activator Peptide enzyme fragment complementation; assay type: cell-based; settings: PathHunter NHR CHO cells, full-length human LXRβ and SRCP, chemiluminescent signal; read-out: LXRβ PPI
Sequence (P55055 whole entry, the tested form may be a part): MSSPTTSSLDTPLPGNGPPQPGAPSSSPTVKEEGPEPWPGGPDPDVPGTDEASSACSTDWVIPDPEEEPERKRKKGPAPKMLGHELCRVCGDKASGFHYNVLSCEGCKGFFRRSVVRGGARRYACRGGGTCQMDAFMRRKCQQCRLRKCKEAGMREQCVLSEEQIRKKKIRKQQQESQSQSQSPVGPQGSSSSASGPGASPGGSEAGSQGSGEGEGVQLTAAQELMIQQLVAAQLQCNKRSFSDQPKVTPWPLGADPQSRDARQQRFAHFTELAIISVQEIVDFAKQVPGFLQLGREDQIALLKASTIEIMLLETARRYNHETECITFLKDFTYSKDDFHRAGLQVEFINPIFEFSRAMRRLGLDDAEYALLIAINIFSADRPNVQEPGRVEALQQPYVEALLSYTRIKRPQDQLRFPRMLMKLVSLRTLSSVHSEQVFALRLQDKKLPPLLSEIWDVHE
pEC50: −log10 of the molar value.
result type: pEC50

[[record]]
compound = "COc1cccnc1N1CCN(C(=O)CC[C@@H](C)[C@H]2CC[C@H]3[C@@H]4CC=C5C[C@@H](O)CC[C@]5(C)[C@H]4CC[C@]23C)CC1"
data_value = "< 5.00"

[[record]]
compound = "CON(C(=O)CC[C@@H](C)[C@H]1CC[C@H]2[C@@H]3CC=C4C[C@@H](O)CC[C@]4(C)[C@H]3CC[C@]12C)C(C)CO (stereo partly drawn)"
data_value = "6.00 to 6.60"

[[record]]
compound = "CNC(=O)C1(C)CCN(C(=O)CC[C@@H](C)[C@H]2CC[C@H]3[C@@H]4CC=C5C[C@@H](O)CC[C@]5(C)[C@H]4CC[C@]23C)CC1"
data_value = "< 5.00"

